- TEST METHOD NOTES: pH profile of enzymes on 1 mM ATP
- Type: biochemical
- CONDITION DESCRIPTION: 50 mM trisodium citrate/citric acid, 5 mM CaCl2, relative to the highest value
ENDPOINT NAME: Relative activity on ATP, pH 4
Returns: the value as a bare number; no unit string appended.

// lookup Relative activity on ATP, pH 4 for CRC25085: Acid phosphatase (Class A), accession WP_092747651.1, SEQ ID NO:21 (protein, listed as Acinetobacter boissieri) LEQSNSFLQLAQVPDSLAIVPAPPAYNSVDFLRDKAAYDQAKSLVGTERWKVAAEDADLSDANIGKPFSQALGIEISPQNTPITYEILRKLRTDAGNYATKAAKEHYMRLRPFMFFNSHTCTPNDEANLSKNGAYPSGHTTIGWSSALVLAEIRPERQNEILQRGYEYGQSRVICGVHWQSDVDAGRITGSAIVARLHADKAFTKMLEEAKQEIQRKTK
0.8

Fill blank: measured Relative activity on ATP, pH 4 of the molecule CRC25089: Acid phosphatase (Class A), accession WP_217352265.1, SEQ ID NO:22 (protein, listed as Paraburkholderia bonniea) AGSDGFLTAETAPSSLAILPPPPAENTVAFLNDKANYEIGRSLKNDARVALAASDANCKNINAIFSSAFGREISEEKTPKLYRLLLGVLQDSHDHAMKSAKNHYMRVRPFVMYGDKTCTPEEDNKMKNTGSYPSGHASFGWAAALVLSEINPERTTEILRRGYDFGQSRVVCGAHWQSDVDNGRLMGAAVVADLHNNDKFIKALEAAKAEFKENTPGN is ____.
0.9

Where do these numbers come from? They come from patent US20240124857A1.
